Source of measurements: patent US6642217B2

# Test system: Trichophyton rubrum
# assay-info: Agar dilution method, growth on Sabouraud dextrose agar slants
# Type: cell-based
# Design: key: +++: Maximum Fungal Growth; ++: Moderate Fungal Growth; +: Minimum Fungal Growth; +/−: Very little Fungal Growth; −: No Fungal Growth
# condition-context: 125 μg/ml; 12th day after inoculation
property-name: Fungal growth

Example entries begin here.
C=C(C)[C@@H]1CC[C@]2(COC(=O)c3ccccc3C(=O)O)CC[C@]3(C)[C@H](CC[C@@H]4[C@@]5(C)CC[C@H](OC(=O)c6ccccc6C(=O)O)C(C)(C)[C@@H]5CC[C@]43C)[C@@H]12 [Betulin-3,28-diphthalate] ... ++
C=C(C)C1CCC2(CO)CCC3(C)C(CCC4C5(C)CCC(OC(=O)C=CC(=O)O)C(C)(C)C5CCC43C)C12 (centres unmarked) [Betulin-3-maleate] ... ++
CC1(C)CCC23CC[C@@]4(C)C(CCC5[C@@]6(C)CCC(OC(=O)CCC(=O)O)C(C)(C)C6CC[C@]54C)C2C1OC3 (some centres unmarked) [Allobetulin-3-succinate] ... ++
C=C(C)[C@@H]1CC[C@]2(COC(=O)COCC(=O)O)CC[C@]3(C)[C@H](CC[C@@H]4[C@@]5(C)CC[C@H](OC(=O)COCC(=O)O)C(C)(C)[C@@H]5CC[C@]43C)[C@@H]12 [Betulin-3,28-didiglycolate] ... ++
C[C@@H]1[C@H](O)[C@@H](C)/C=C/C=C/CC/C=C/C=C/C=C/C=C/C(O[C@H]2O[C@H](C)[C@@H](O)[C@H](N)[C@@H]2O)CC2O[C@](O)(CC(O)C(O)CCC(O)CC(O)CC(O)CC(=O)O[C@H]1C)CC(O)C2C(=O)O (some centres unmarked) [Nystatin, reference compound] ... +
C=C(C)C1CCC2(COC(=O)CCC(=O)O)CC[C@@]3(C)C(CCC4[C@@]5(C)CCC(OC(=O)CCC(=O)O)C(C)(C)C5CC[C@]43C)C12 (some centres unmarked) [Betulin-3,28-disuccinate] ... ++

input: Any idea what Fungal growth was measured for COC1=CC(=O)C[C@@H](C)[C@]12Oc1c(Cl)c(OC)cc(OC)c1C2=O [Griseofulvin, reference compound] ?
output: +/−

input: Any idea what Fungal growth was measured for C=C(C)C1CCC2(COC(=O)CCC(=O)O)CC[C@@]3(C)C(CCC4[C@@]5(C)CCC(O)C(C)(C)C5CC[C@]43C)C12 (some centres unmarked) [Betulin-28-succinate] ?
output: +
